Test: physchem
Settings: organic solvent or mixture, thermodynamic from solid, Solubility

>  <molecule>
COc1cc(/C=C/C(=O)CC(=O)/C=C/c2ccc(O)c(OC)c2)ccc1O [CU, Curcumin]

>  <solubility at 5 min / µg/mL>
7900

$$$$

----------
Test: physchem
Conditions: 25 °C, aqueous with cosolvent or surfactant or cyclodextrin, thermodynamic from solid, Solubility
experimental.readout: solubility at 5 min (µg/mL)

>  <structure.notation>
COc1cc(/C=C/C(=O)CC(=O)/C=C/c2ccc(O)c(OC)c2)ccc1O

>  <experimental.readout>
solubility at 5 min

>  <obs.value>
1900

$$$$

----------
Experiment: physchem
Conditions: 25 °C, water, thermodynamic from solid, Solubility
Below: a set of entries, each annotated with reported solubility at 5 min.

>  <structure.notation>
O=C(O)c1cc(O)c(O)c(O)c1

>  <solubility at 5 min [µg/mL]>
10500

$$$$
>  <structure.notation>
O=C(/C=C/c1ccc(O)c(O)c1)O[C@H](Cc1ccc(O)c(O)c1)C(=O)O

>  <solubility at 5 min [µg/mL]>
6600

$$$$
>  <structure.notation>
COc1cc(/C=C/C(=O)CC(=O)/C=C/c2ccc(O)c(OC)c2)ccc1O

>  <solubility at 5 min [µg/mL]>
0.5

$$$$
